For each record, write down the corresponding inhibition.
tested on: Mast/stem cell growth factor receptor Kit (Homo sapiens), P10721 [V560G]; conditions: at 1 µM
Sequence (P10721 whole entry V560G): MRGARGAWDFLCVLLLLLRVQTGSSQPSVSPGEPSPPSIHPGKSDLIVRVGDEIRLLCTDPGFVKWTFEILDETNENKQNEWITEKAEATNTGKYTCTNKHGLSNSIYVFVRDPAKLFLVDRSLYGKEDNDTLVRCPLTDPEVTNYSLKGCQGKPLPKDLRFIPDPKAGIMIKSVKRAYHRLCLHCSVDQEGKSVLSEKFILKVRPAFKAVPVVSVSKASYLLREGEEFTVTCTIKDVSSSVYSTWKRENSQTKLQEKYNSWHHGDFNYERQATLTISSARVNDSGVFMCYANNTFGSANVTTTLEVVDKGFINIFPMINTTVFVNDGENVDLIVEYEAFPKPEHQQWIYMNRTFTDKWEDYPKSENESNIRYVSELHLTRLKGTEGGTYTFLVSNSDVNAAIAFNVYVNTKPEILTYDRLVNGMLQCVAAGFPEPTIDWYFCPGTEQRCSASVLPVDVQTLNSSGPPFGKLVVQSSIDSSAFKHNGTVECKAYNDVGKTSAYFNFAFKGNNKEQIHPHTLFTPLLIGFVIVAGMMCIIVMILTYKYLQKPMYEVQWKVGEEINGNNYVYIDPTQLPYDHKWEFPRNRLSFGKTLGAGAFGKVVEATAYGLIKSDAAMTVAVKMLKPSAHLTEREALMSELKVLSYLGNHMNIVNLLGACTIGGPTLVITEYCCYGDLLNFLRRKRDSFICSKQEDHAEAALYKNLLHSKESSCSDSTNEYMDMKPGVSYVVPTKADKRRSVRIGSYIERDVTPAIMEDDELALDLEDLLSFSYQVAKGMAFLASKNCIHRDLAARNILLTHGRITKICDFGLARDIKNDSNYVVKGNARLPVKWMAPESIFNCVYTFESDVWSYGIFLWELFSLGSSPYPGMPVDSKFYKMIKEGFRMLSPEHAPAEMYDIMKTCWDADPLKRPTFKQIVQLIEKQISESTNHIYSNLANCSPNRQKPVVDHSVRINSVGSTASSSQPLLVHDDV
Numbers only, in %.

For each of the items listed, what is its inhibition?
1. NC(=O)c1sc(-n2cnc3ccccc32)cc1OCc1ccccc1Br
2. CN(C)CCCn1c(-c2nonc2N)nc2cnccc21
3. Cc1nc(-c2ccccc2)n2nc(NCCCN3CCOCC3)ncc12
4. NS(=O)(=O)c1ccc(Nc2cc(-c3cccc(O)c3)n[nH]2)cc1

1: -0.34; 2: -1.19; 3: 0.39; 4: 25.4

For each of the items listed, what is its inhibition?
1. NS(=O)(=O)c1ccc(NC=C2C(=O)Nc3ccc4ncsc4c32)cc1
2. NS(=O)(=O)c1cccc(-c2cc3ccncc3cc2OCc2ccccc2)c1
3. CN(C)C(=O)O[C@@H]1CN[C@@H](C#Cc2cc3ncnc(Nc4ccc(OCc5cccc(F)c5)c(Cl)c4)c3s2)C1
4. Cc1cc(-c2ccccn2)cc(C)c1/C=C/c1cncc(-c2nn[nH]n2)c1
5. NS(=O)(=O)c1ccc(N/N=C2\C(=O)Nc3ccc(Cl)cc32)cc1
6. N#Cc1c(NC(=O)c2ccccc2F)sc2c1CCCC2

32
9.47
4.14
-1.86
30.3
2.89
